molecular target: recombinant human BTK protein (Homo sapiens, UniProt Q06187); assay: Measurement of BTK inhibitory activity (in vitro); details: ATP 45 μM, 40 minutes at 25° C.
Sequence (Q06187 whole entry): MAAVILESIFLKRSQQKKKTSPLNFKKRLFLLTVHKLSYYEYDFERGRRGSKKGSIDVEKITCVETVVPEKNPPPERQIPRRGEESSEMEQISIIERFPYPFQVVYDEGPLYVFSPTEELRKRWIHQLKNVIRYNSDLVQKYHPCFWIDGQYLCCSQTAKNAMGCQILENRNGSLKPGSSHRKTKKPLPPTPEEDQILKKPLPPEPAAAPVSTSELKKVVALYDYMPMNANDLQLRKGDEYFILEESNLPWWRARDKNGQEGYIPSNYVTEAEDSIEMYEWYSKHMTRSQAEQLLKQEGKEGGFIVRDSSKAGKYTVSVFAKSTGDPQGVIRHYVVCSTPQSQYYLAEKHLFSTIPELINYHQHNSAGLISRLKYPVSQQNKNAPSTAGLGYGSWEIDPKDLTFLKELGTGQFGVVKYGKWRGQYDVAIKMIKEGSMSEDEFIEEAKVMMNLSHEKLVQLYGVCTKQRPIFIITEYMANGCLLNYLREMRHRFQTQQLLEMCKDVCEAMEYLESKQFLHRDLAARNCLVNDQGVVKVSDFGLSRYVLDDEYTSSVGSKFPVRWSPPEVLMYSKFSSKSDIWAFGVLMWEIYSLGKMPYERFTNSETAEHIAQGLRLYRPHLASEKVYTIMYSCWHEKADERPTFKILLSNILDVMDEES
// reported log10 IC50 for each item listed
Annotation: log10 of IC50, nM basis.

Study these solved cases before continuing.
C=CC(=O)N1CCC[C@@H](n2nc(C(=O)Nc3nc4cc(CCOC)ccc4o3)c3c(N)ncnc32)C1 :: 0.10
C=CC(=O)N1CC(n2nc(C(=O)Nc3nc4cc(Cl)ccc4o3)c3c(N)ncnc32)C1 :: 0.10
C/C=C/C(=O)N1CCC[C@@H](n2nc(C(=O)Nc3nc4ccccc4o3)c3c(N)ncnc32)C1 :: 1.15

Consider the record given below.
INPUT: For the compound C=CC(=O)N1CCC[C@@H](n2nc(C(=O)Nc3nc4cc(OC)ccc4o3)c3c(N)ncnc32)C1 , report log10 IC50.
OUTPUT: -0.34

Reference for the values: patent US9782412B2
